# System Name: protein-protein interaction between Kras and SOS1 (biotin-tagged human Kras loaded with GDP, His-tagged human SOS1) (Homo sapiens (Human), UniProt P01116, G12D)
# Protocol Details: Protein-protein interaction inhibition between Kras and SOS1 (KrasG12D-SOS PPI) using AlphaScreen
# Type: biochemical
# Particulars: AlphaScreen; biotin-tagged human Kras loaded with GDP, His-tagged human SOS1; read-out: KRAS G12D-SOS PPI IC50
Numbered stars: 1 amine (or outer) side, 2 acyl side, 3 side chain; on linkers, the order of the positions; unused ones are H or OH. Bridge positions count the residues as written; N and C are the ends. Square brackets hold non-standard residues; d marks the D form. Peptide text beside a SMILES is read from it. * marks the point of attachment. hPhe(3-Cl-4-CF3) = N[C@@H](CCc1ccc(C(F)(F)F)c(Cl)c1)C(=O)O; NMeCha = CN[C@@H](CC1CCCCC1)C(=O)O; NMeChg = CN[C@H](C(=O)O)C1CCCCC1; X43 = O=C(CN(CCCCCO)[*:1])[*:2]; NMeD = CN[C@@H](CC(=O)O)C(=O)O; NMeL = CN[C@@H](CC(C)C)C(=O)O; Piperidide = C1CCN(*)CC1; Ac5c = NC1(C(=O)O)CCCC1; Sar = CNCC(=O)O
Readout Kind: IC50 (nM)
Write the value in nM as a bare number.

For CC[C@H](C)[C@@H]1NC(=O)[C@H](CC(C)C)N(C)C(=O)C[C@@H](C(=O)N2CCCCC2)N(C)C(=O)[C@H](C2CCCCC2)N(C)C(=O)C2(CCCC2)NC(=O)CN(CCCCCO)C(=O)[C@H](CCc2ccc(C(F)(F)F)c(Cl)c2)NC(=O)CN(C)C(=O)[C@H](CC2CCCCC2)N(C)C(=O)CN(C)C(=O)CN(C)C1=O [Compound 2049] ([NMeL]I[Sar][Sar][NMeCha][Sar][hPhe(3-Cl-4-CF3)][X43][Ac5c][NMeChg][NMeD]-Piperidide; lactam N-11) , write its IC50.
4

----------
Give IC50 for every item shown.
# System Name: protein-protein interaction between Kras and SOS1 (biotin-tagged human Kras loaded with GDP, His-tagged human SOS1) (Homo sapiens (Human), UniProt P01116, G12D)
# Protocol Details: Protein-protein interaction inhibition between Kras and SOS1 (KrasG12D-SOS PPI) using AlphaScreen;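 note: kras produced in E. coli, Ni-coupled donor beads and streptavidin acceptor beads, excitation 680 nm with emission detected at 520–620 nm via singlet oxygen transfer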
# Assay type: biochemical
# Particulars: AlphaScreen; biotin-tagged human Kras loaded with GDP, His-tagged human SOS1; read-out: KRAS G12D-SOS PPI IC50
Bridge positions count the residues as written; N and C are the ends. Square brackets hold non-standard residues; d marks the D form. Peptide text beside a SMILES is read from it. * marks the point of attachment. hPhe(3-Cl-4-CF3) = N[C@@H](CCc1ccc(C(F)(F)F)c(Cl)c1)C(=O)O; NMePhe(4-Me) = CN[C@@H](Cc1ccc(C)cc1)C(=O)O; NMeGly(cPent) = CN[C@H](C(=O)O)C1CCCC1; NMeCha = CN[C@@H](CC1CCCCC1)C(=O)O; Hyp = O=C(O)[C@@H]1C[C@@H](O)CN1; NEtLeu = CCN[C@@H](CC(C)C)C(=O)O; NMeI = CC[C@H](C)[C@H](NC)C(=O)O; NMeD = CN[C@@H](CC(=O)O)C(=O)O; NMeL = CN[C@@H](CC(C)C)C(=O)O; Pyrrolidide = C1CCN(*)C1; Ac5c = NC1(C(=O)O)CCCC1; Aze = O=C(O)[C@@H]1CCN1; Sar = CNCC(=O)O
Write the value in nM as a bare number.

For CCO[C@@H]1C[C@H]2C(=O)NC3(CCCC3)C(=O)N(C)[C@@H](C3CCCC3)C(=O)N(C)[C@H](C(=O)N3CCCC3)CC(=O)N(C)[C@@H](CC(C)C)C(=O)N[C@@H]([C@@H](C)CC)C(=O)N(C)CC(=O)N(C)CC(=O)N(C)[C@@H](CC3CCCCC3)C(=O)N(C)CC(=O)N[C@@H](CCc3ccc(C(F)(F)F)c(Cl)c3)C(=O)N2C1 [Compound 1370] ([NMeL]I[Sar][Sar][NMeCha][Sar][hPhe(3-Cl-4-CF3)][Hyp](Et)[Ac5c][NMeGly(cPent)][NMeD]-Pyrrolidide; lactam N-11) , write its IC50.
0.6

For CC[C@H](C)[C@@H]1NC(=O)[C@H](CC(C)C)N(CC)C(=O)C[C@@H](C(=O)N(C)C)N(C)C(=O)[C@H]([C@@H](C)CC)N(C)C(=O)C2(CCCC2)NC(=O)[C@@H]2CCCN2C(=O)[C@H](CCc2ccc(C(F)(F)F)c(Cl)c2)NC(=O)CN(C)C(=O)[C@H](Cc2ccc(C)cc2)N(C)C(=O)[C@@H]2CCN2C(=O)[C@H](C)NC1=O [Compound 1287] ([NEtLeu]IA[Aze][NMePhe(4-Me)][Sar][hPhe(3-Cl-4-CF3)]P[Ac5c][NMeI][NMeD]-NMe2; lactam N-11) , write its IC50.
1.1

Data provenance: patent US20240148821A1
